The reported measurements were obtained from the supplement of paper PMC12042874.

amyloid nucleation score values by entry
Assay Name: amyloid nucleation score (Sup35N fusion, yeast selection) (log enrichment); library NNK2; higher = more nucleation; inactive = no reads after selection;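 also: zero at mode of non-aggregating sequences after 7 days selection at 30°C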
A bare number is all that is needed in reply.

Solved entries:
CRNRVDECSIWRD: -0.046
RTVLFAGCAVSNEMFCEKLV: 3.68
ADCLKSCLAMSGF: -0.14
VQLGVHV: 0.14
DCLNYFTTLIKLVSLVCWNG: -0.571
ACTLCGVWSVFTIFARHKIR: 3.1
NVHDSLFWQFVIVNYTIGLS: 3.38
STYPILR: 2.02

Give reported amyloid nucleation score value for QLFFRYYCEAGDVCIFGHIA
3.32

Give reported amyloid nucleation score value for AESICSSVRSYGMSSFRDPE
-0.887

Give reported amyloid nucleation score value for SGTWMGAATY
3.62

###

Assay Name: amyloid nucleation score (Sup35N fusion, yeast selection) (log enrichment); library NNK3; higher = more nucleation; inactive = no reads after selection
Measured Property: amyloid nucleation score

Solved entries:
HNETKLCSHMLGVMGKNCGE: inactive
NNFKGFFRRFTVGCSRTPPT: inactive
ARCECESSTRVSSLVYLSRE: inactive
VHMNRSGSAALEFGMLWEYI: inactive

Give reported amyloid nucleation score value for LAMHIALDSNRDKAFGVLNE
inactive

Give reported amyloid nucleation score value for RNLSLDLT
inactive

Give reported amyloid nucleation score value for RVQWALLSIKGHCS
0.645

Give reported amyloid nucleation score value for AVWTCIGWDERTKMLYKFIR
inactive

Give reported amyloid nucleation score value for CNKSFRLYEMM
inactive

###

Assay Name: amyloid nucleation score (Sup35N fusion, yeast selection) (log enrichment); library NNK2; higher = more nucleation; inactive = no reads after selection
amyloid nucleation score values by entry
A bare number is all that is needed in reply.

Solved entries:
AMTVSWWCCLMYVDMG: 10.6
VLRNKVVCSYQLYLRWFGKD: 1.64
RFILLFTCGKGFFMHTCSRG: 3.86
IYVFGIGTYMVTQFLCSTTI: 6.91
CIYMSRSRRKCGCSLGTRYV: -0.393

Give reported amyloid nucleation score value for VGSNKGAIIGLMIVGGVVIA
3.11

Give reported amyloid nucleation score value for HTTDFIVLMVRSDASIRLWS
4.1

Give reported amyloid nucleation score value for KAGESWTEGDSAVWGFLRLE
0.942

Give reported amyloid nucleation score value for SGPWTSWLVSLG
-0.003

Give reported amyloid nucleation score value for YTRSAGGLISL
-0.774

Give reported amyloid nucleation score value for NTAVSYFNHKSVAFFYFCDL
4.94

Give reported amyloid nucleation score value for GNVGTRPQINTGSVCYMSCI
4.6

Give reported amyloid nucleation score value for NLDGCTVIS
0.774

Give reported amyloid nucleation score value for LDFHPVCRGMSSPCQCASMR
0.907

Give reported amyloid nucleation score value for FNTRMSIKSGNMTWSNYYWF
5.77

Give reported amyloid nucleation score value for VVGTPCL
0.542

Give reported amyloid nucleation score value for YCKFYWNHNVYCLVALWRLW
-0.149

Give reported amyloid nucleation score value for LVAHPLYGSTKWGN
-0.596

Give reported amyloid nucleation score value for FWYSCR
-0.889

Give reported amyloid nucleation score value for LYRRFRQRCIRERERLVHGL
0.01

Give reported amyloid nucleation score value for GSLMHEFAH
-0.698

Give reported amyloid nucleation score value for TTDSGAVYSGLPE
0.542

Give reported amyloid nucleation score value for MINLQYLVGNLAVGL
1.37
